Entry source: the RNAGym collection of RNA variant scans (doi:10.7554/elife.90254)

B1: LINE1-mini (parent)
chain: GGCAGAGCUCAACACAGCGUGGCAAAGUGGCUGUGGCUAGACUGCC

Variants of: B1
Experiment: self-cleavage, relative activity (ratio to wild type); higher = more cleavage; in vitro, sequencing; the parent is a self-cleaving ribozyme

# mutation-list, self-cleavage
data = [
    ("C42A U43A", 0.15),
    ("G19C C42G", 0.01),
    ("G1C C3G", 0.1),
    ("C10A A12U", 0.04),
    ("C3A U43A", 0.39),
    ("G1A G36C", 0.11),
    ("G2A A39C", 0.54),
    ("G22A G35U", 0.14),
    ("A24C G29C", 0.54),
    ("G2C U38C", 0.04),
    ("U28C A41U", 0.45),
    ("C18U G33C", 0.04),
    ("C18U C46U", 1.43),
    ("A4C C46G", 0.13),
    ("G1A A41G", 0.26),
    ("U9G U43A", 0.07),
    ("G17C U38A", 0.14),
    ("C13G C42G", 0.09),
    ("C15G C45G", 0.08),
    ("A25U U34C", 0.13),
    ("U20C G33U", 0.14),
    ("A16G U38C", 0.18),
    ("C23G C42A", 0.19),
    ("U34A C37G", 0.04),
    ("A14U C45G", 0.07),
    ("G21C C31G", 0.09),
    ("G7A C23A", 0.15),
    ("C10A G29C", 0.04),
    ("A16C U32A", 0.13),
    ("G1C U38A", 0.05),
    ("G19U U38A", 0.38),
    ("U20C U43C", 0.09),
    ("U34C A41U", 0.06),
    ("A11C G33A", 0.04),
    ("G2U A11C", 0.01),
    ("G1C U20C", 0.04),
    ("U28C G30A", 0.96),
    ("A16G C18G", 0.04),
    ("G19C C31U", 0.58),
    ("A4C U20A", 0.08),
    ("G19A G30C", 1.5),
    ("C13G G36A", 0.29),
    ("C8A U20A", 0.14),
    ("U28A U43A", 0.11),
    ("A6G C45G", 0.18),
    ("A26C A41C", 0.04),
]
